Type: in vivo, human (Chinese patients)
measurementContext: human, plasma, oral
recordedMetric: half-life

Ask | Retrieve half-life measured for C=CC(=O)N1CCC([C@@H]2CCNc3c(C(N)=O)c(-c4ccc(Oc5ccccc5)cc4)nn32)CC1 [zanubrutinib] and print it.
Reply | 2.3 to 3.4 h
